# System: Saprolegnia
# assay explanation: Antifungal activity against Saprolegnia species assessed as lowest dose level for total inhibition of fungal growth
# Assay type: functional
attribute measured: Activity

- COc1ccc(CCC(Cn2ccnc2)c2ccc(Cl)cc2Cl)cc1.O=[N+]([O-])O (stereo not drawn): 10 µg/mL
- Clc1ccc(CC(Cn2ccnc2)c2c(Cl)cccc2Cl)cc1.O=[N+]([O-])O (stereo not drawn): 100 µg/mL
- Clc1ccc(C(Cc2ccc(Br)cc2)Cn2ccnc2)c(Cl)c1.O=[N+]([O-])O (stereo not drawn): 100 µg/mL
- Clc1ccc(CC(Cn2ccnc2)c2ccc(Cl)cc2Cl)c(Cl)c1.O=[N+]([O-])O (stereo not drawn): 100 µg/mL
- Clc1ccc(CCC(Cn2ccnc2)c2ccc(Cl)cc2Cl)cc1.O=[N+]([O-])O (stereo not drawn): 10 µg/mL
- Clc1ccc(C(CCc2ccccc2Cl)Cn2ccnc2)c(Cl)c1.O=[N+]([O-])O (stereo not drawn): 100 µg/mL
- Clc1ccc(C(Cc2ccccc2Cl)Cn2ccnc2)cc1.O=[N+]([O-])O (stereo not drawn): 100 µg/mL
- Clc1ccc(C(CCc2ccccc2)Cn2ccnc2)c(Cl)c1.O=[N+]([O-])O (stereo not drawn): 10 µg/mL

----------
# System: Candida albicans
# assay explanation: In vivo antifungal activity against Candida albicans topically infected in guinea pig assessed as animal cured at 10 mg/kg, po
# Type: functional, organism-based
# Design: dose 10 mg/kg
Activity calls are given as the source filed them. The rule behind the calls is not given here.
Classes used: t for active, f for inactive

- Clc1ccc(CC(Cn2ccnc2)c2ccc(Cl)cc2Cl)c(Cl)c1.O=[N+]([O-])O (stereo unspecified): f
- Clc1ccc(CCC(Cn2ccnc2)c2ccc(Cl)cc2Cl)c(Cl)c1.O=[N+]([O-])O (stereo unspecified): f
- Clc1ccc(C(CCc2ccccc2)Cn2ccnc2)c(Cl)c1.O=[N+]([O-])O (stereo unspecified): f
- Clc1ccc(C(Cc2ccc(Br)cc2)Cn2ccnc2)c(Cl)c1.O=[N+]([O-])O (stereo unspecified): f
- Clc1ccc(CC(Cn2ccnc2)c2c(Cl)cccc2Cl)cc1.O=[N+]([O-])O (stereo unspecified): f
- Clc1ccc(CC(Cn2ccnc2)c2ccccc2Cl)cc1.O=[N+]([O-])O (stereo unspecified): t
- Clc1ccc(CC(Cn2ccnc2)c2ccc(Cl)cc2Cl)cc1.O=[N+]([O-])O (stereo unspecified): f
- COc1ccc(CC(Cn2ccnc2)c2ccc(Cl)cc2Cl)cc1.O=[N+]([O-])O (stereo unspecified): f
- Clc1ccc(CC(Cn2ccnc2)c2ccccc2Cl)c(Cl)c1.O=[N+]([O-])O (stereo unspecified): f
- Clc1ccc(CCC(Cn2ccnc2)c2ccc(Cl)cc2Cl)cc1.O=[N+]([O-])O (stereo unspecified): f
- Clc1ccccc1CC(Cn1ccnc1)c1ccccc1Cl.O=[N+]([O-])O (stereo unspecified): f
- Clc1ccc(C(Cc2ccccc2Cl)Cn2ccnc2)cc1.O=[N+]([O-])O (stereo unspecified): f
- Clc1ccc(C(Cc2ccccc2)Cn2ccnc2)c(Cl)c1.O=[N+]([O-])O (stereo unspecified): f
- COc1ccc(CCC(Cn2ccnc2)c2ccc(Cl)cc2Cl)cc1.O=[N+]([O-])O (stereo unspecified): f
- Clc1ccc(CC(Cn2ccnc2)c2c(Cl)cccc2Cl)c(Cl)c1.O=[N+]([O-])O (stereo unspecified): f
- Clc1ccc(CC(Cn2ccnc2)c2ccccc2Br)c(Cl)c1.O=[N+]([O-])O (stereo unspecified): f

----------
# Tested on: Cryptococcus neoformans
# assay explanation: Antifungal activity against Cryptococcus neoformans assessed as lowest dose level for total inhibition of fungal growth
# Type: functional
attribute measured: Activity

- Clc1ccc(C(CCc2ccc(Br)cc2)Cn2ccnc2)c(Cl)c1.O=[N+]([O-])O (stereo not drawn): <1 µg/mL
- Clc1ccc(CC(Cn2ccnc2)c2ccccc2Br)cc1.O=[N+]([O-])O (stereo not drawn): <1 µg/mL
- Clc1ccc(C(CCc2ccccc2Cl)Cn2ccnc2)c(Cl)c1.O=[N+]([O-])O (stereo not drawn): <1 µg/mL
- Clc1ccc(CC(Cn2ccnc2)c2ccc(Cl)cc2Cl)cc1.O=[N+]([O-])O (stereo not drawn): <1 µg/mL
- Clc1ccc(C(Cc2ccccc2Cl)Cn2ccnc2)c(Cl)c1.O=[N+]([O-])O (stereo not drawn): <1 µg/mL
- Clc1ccc(C(Cc2c(Cl)cccc2Cl)Cn2ccnc2)cc1.O=[N+]([O-])O (stereo not drawn): <1 µg/mL
- Clc1ccc(C(Cc2ccc(Br)cc2)Cn2ccnc2)c(Cl)c1.O=[N+]([O-])O (stereo not drawn): <1 µg/mL
- Clc1ccc(CCC(Cn2ccnc2)c2ccc(Cl)cc2Cl)c(Cl)c1.O=[N+]([O-])O (stereo not drawn): <1 µg/mL
- Clc1ccc(C(Cc2ccc(Cl)cc2Cl)Cn2ccnc2)cc1.O=[N+]([O-])O (stereo not drawn): <1 µg/mL
- Clc1ccc(CC(Cn2ccnc2)c2ccc(Cl)cc2Cl)c(Cl)c1.O=[N+]([O-])O (stereo not drawn): <1 µg/mL
- Cc1ccccc1C(Cc1ccc(Cl)cc1)Cn1ccnc1.O=[N+]([O-])O (stereo not drawn): 10 µg/mL
- Clc1ccc(CC(Cn2ccnc2)c2c(Cl)cccc2Cl)c(Cl)c1.O=[N+]([O-])O (stereo not drawn): 10 µg/mL
- Clc1ccccc1CC(Cn1ccnc1)c1ccccc1Cl.O=[N+]([O-])O (stereo not drawn): <1 µg/mL
- Clc1ccc(C(Cc2ccccc2Cl)Cn2ccnc2)cc1.O=[N+]([O-])O (stereo not drawn): <1 µg/mL
- Clc1ccc(CCC(Cn2ccnc2)c2ccc(Cl)cc2Cl)cc1.O=[N+]([O-])O (stereo not drawn): <1 µg/mL
- COc1ccc(CC(Cn2ccnc2)c2ccc(Cl)cc2Cl)cc1.O=[N+]([O-])O (stereo not drawn): <1 µg/mL
- Clc1ccc(CC(Cn2ccnc2)c2ccccc2Cl)cc1.O=[N+]([O-])O (stereo not drawn): <1 µg/mL
- Clc1ccc(C(CCc2ccccc2)Cn2ccnc2)c(Cl)c1.O=[N+]([O-])O (stereo not drawn): <1 µg/mL
- Clc1ccc(CC(Cn2ccnc2)c2c(Cl)cccc2Cl)cc1.O=[N+]([O-])O (stereo not drawn): 100 µg/mL
- Clc1ccc(C(Cc2ccccc2)Cn2ccnc2)c(Cl)c1.O=[N+]([O-])O (stereo not drawn): <1 µg/mL
- Clc1ccc(CC(Cn2ccnc2)c2ccccc2Cl)c(Cl)c1.O=[N+]([O-])O (stereo not drawn): <1 µg/mL
- Clc1ccc(C(Cc2c(Cl)cccc2Cl)Cn2ccnc2)c(Cl)c1.O=[N+]([O-])O (stereo not drawn): <1 µg/mL
- Cc1ccccc1C(Cc1ccc(Cl)cc1Cl)Cn1ccnc1.O=[N+]([O-])O (stereo not drawn): 10 µg/mL
- COc1ccc(CCC(Cn2ccnc2)c2ccc(Cl)cc2Cl)cc1.O=[N+]([O-])O (stereo not drawn): <1 µg/mL
- Cc1ccccc1C(Cc1c(Cl)cccc1Cl)Cn1ccnc1.O=[N+]([O-])O (stereo not drawn): 100 µg/mL
- Clc1ccc(CC(Cn2ccnc2)c2ccccc2Br)c(Cl)c1.O=[N+]([O-])O (stereo not drawn): <1 µg/mL
- Clc1ccc(COC(Cn2ccnc2)c2ccc(Cl)cc2Cl)c(Cl)c1 (stereo not drawn): 1 µg/mL
- Clc1ccccc1C(Cc1c(Cl)cccc1Cl)Cn1ccnc1.O=[N+]([O-])O (stereo not drawn): 10 µg/mL

----------
# System: Mucor
# assay explanation: Antifungal activity against Mucor species assessed as lowest dose level for total inhibition of fungal growth
# Assay type: functional
attribute measured: Activity (µg/mL)

* Clc1ccc(C(Cc2ccc(Cl)cc2Cl)Cn2ccnc2)cc1.O=[N+]([O-])O (stereo not given) | 100
* Clc1ccc(CC(Cn2ccnc2)c2ccccc2Br)c(Cl)c1.O=[N+]([O-])O (stereo not given) | 10
* Clc1ccc(CC(Cn2ccnc2)c2ccccc2Cl)cc1.O=[N+]([O-])O (stereo not given) | 100
* Cc1ccccc1C(Cc1ccc(Cl)cc1Cl)Cn1ccnc1.O=[N+]([O-])O (stereo not given) | 10
* Clc1ccc(CC(Cn2ccnc2)c2ccc(Cl)cc2Cl)c(Cl)c1.O=[N+]([O-])O (stereo not given) | 100
* Clc1ccc(C(Cc2ccccc2Cl)Cn2ccnc2)c(Cl)c1.O=[N+]([O-])O (stereo not given) | 100
* Cc1ccccc1C(Cc1ccc(Cl)cc1)Cn1ccnc1.O=[N+]([O-])O (stereo not given) | 100
* Clc1ccc(CCC(Cn2ccnc2)c2ccc(Cl)cc2Cl)cc1.O=[N+]([O-])O (stereo not given) | 100
* Clc1ccc(C(CCc2ccccc2Cl)Cn2ccnc2)c(Cl)c1.O=[N+]([O-])O (stereo not given) | 100

----------
# Tested on: Aspergillus fumigatus
# assay explanation: Antifungal activity against Aspergillus fumigatus assessed as lowest dose level for total inhibition of fungal growth
# Format: functional
attribute measured: Activity

- Clc1ccccc1CC(Cn1ccnc1)c1ccccc1Cl.O=[N+]([O-])O (stereo not given): 10 µg/mL
- Clc1ccc(C(Cc2ccccc2)Cn2ccnc2)c(Cl)c1.O=[N+]([O-])O (stereo not given): 100 µg/mL
- Clc1ccc(CC(Cn2ccnc2)c2c(Cl)cccc2Cl)cc1.O=[N+]([O-])O (stereo not given): 100 µg/mL
- Clc1ccc(C(Cc2ccc(Cl)cc2Cl)Cn2ccnc2)cc1.O=[N+]([O-])O (stereo not given): 100 µg/mL
- Clc1ccc(CC(Cn2ccnc2)c2ccc(Cl)cc2Cl)c(Cl)c1.O=[N+]([O-])O (stereo not given): 100 µg/mL
- Clc1ccc(C(CCc2ccc(Br)cc2)Cn2ccnc2)c(Cl)c1.O=[N+]([O-])O (stereo not given): 100 µg/mL
- COc1ccc(CCC(Cn2ccnc2)c2ccc(Cl)cc2Cl)cc1.O=[N+]([O-])O (stereo not given): 100 µg/mL
- Clc1ccc(C(Cc2ccc(Br)cc2)Cn2ccnc2)c(Cl)c1.O=[N+]([O-])O (stereo not given): 100 µg/mL
- COc1ccc(CC(Cn2ccnc2)c2ccc(Cl)cc2Cl)cc1.O=[N+]([O-])O (stereo not given): 100 µg/mL
- Clc1ccc(C(Cc2c(Cl)cccc2Cl)Cn2ccnc2)cc1.O=[N+]([O-])O (stereo not given): 100 µg/mL
- Cc1ccccc1C(Cc1ccc(Cl)cc1)Cn1ccnc1.O=[N+]([O-])O (stereo not given): 100 µg/mL
- Clc1ccc(CC(Cn2ccnc2)c2ccc(Cl)cc2Cl)cc1.O=[N+]([O-])O (stereo not given): 100 µg/mL
- Clc1ccc(C(Cc2ccccc2Cl)Cn2ccnc2)cc1.O=[N+]([O-])O (stereo not given): 100 µg/mL
- Clc1ccc(CC(Cn2ccnc2)c2c(Cl)cccc2Cl)c(Cl)c1.O=[N+]([O-])O (stereo not given): 100 µg/mL
- Clc1ccc(C(CCc2ccccc2Cl)Cn2ccnc2)c(Cl)c1.O=[N+]([O-])O (stereo not given): 100 µg/mL
- Clc1ccc(COC(Cn2ccnc2)c2ccc(Cl)cc2Cl)c(Cl)c1 (stereo not given): 10 µg/mL
- Clc1ccc(CCC(Cn2ccnc2)c2ccc(Cl)cc2Cl)c(Cl)c1.O=[N+]([O-])O (stereo not given): 100 µg/mL
- Clc1ccc(C(CCc2ccccc2)Cn2ccnc2)c(Cl)c1.O=[N+]([O-])O (stereo not given): 100 µg/mL
- Clc1ccc(CC(Cn2ccnc2)c2ccccc2Br)cc1.O=[N+]([O-])O (stereo not given): 100 µg/mL
- Clc1ccccc1C(Cc1c(Cl)cccc1Cl)Cn1ccnc1.O=[N+]([O-])O (stereo not given): 10 µg/mL
